Here, each record is paired with measured growth data.
System: RXF 393 renal
Assay: NCI-60 one-dose screen, 48 h (100 = growth as untreated, 0 = no growth, -100 = all killed)
Details: 10 µM unless noted
This is part of a sample that, as a whole, favours compounds with a hit. Of some 83,000 tested, about 20% had one in any assay. Calls of active or inactive are those of the source. Rule for the calls: active = growth percent below 10; inactive = the rest.

### Prompt Please report growth with RXF 393 renal for item `N#C/C(=C\c1ccc2ccccc2c1)c1cc2ccccc2[nH]1` .
### Response 29.3% (inactive)

### Prompt Param request: growth | system RXF 393 renal | item CCC(C)N(c1ccc(Cl)cc1)c1nc(-c2ccc(Br)cc2)cs1 (configuration not stated)
### Response 121% (inactive)

### Prompt Enter growth (test system RXF 393 renal) for `C#CCn1cnc2c(Nc3cccc(NC(=O)C=C)c3)ncnc21`
### Response 85.2% (inactive)

### Prompt Tell me its growth on RXF 393 renal: `CC(C)c1ccc(NC(=O)Nc2ccc(NC(=O)CCCC(=O)NOCc3ccccc3)cc2)cc1`
### Response 109% (inactive)

### Prompt Please respond with reported growth (system RXF 393 renal) for `C#Cc1cccc(Nc2ncnc3ccc(-c4cnc(N)nc4)cc23)c1` .
### Response -15.3% (active)

### Prompt Output reported growth of the molecule `COc1ccc2c(c1)c(-c1noc(C(=O)c3cn(C)c4ccc(Br)cc34)n1)cn2C` on RXF 393 renal.
### Response 114% (inactive)

### Prompt Write down the reported growth (system: RXF 393 renal) of CC1Cc2c(Cl)ncnc2N(C)c2ccc(F)cc21 (configuration not stated)
### Response 104% (inactive)

### Prompt Please report growth with RXF 393 renal for item `CS(=O)(=O)C1=CN(CCO)C(=O)N2CCCN=C12` .
### Response 106% (inactive)

### Prompt Answer with growth of `N#Cc1c(-c2cccs2)cc(-c2cccnc2)[nH]c1=O` measured for RXF 393 renal.
### Response 101% (inactive)

### Prompt Report the value of growth obtained on RXF 393 renal for `O=C(Nc1nc2ccc(F)cc2s1)c1cccnc1Nc1ccc(Cl)cc1` .
### Response 59.8% (inactive)

### Prompt Please respond with reported growth (system RXF 393 renal) for CC1(c2ccccc2O)NN=C(/N=C/c2cccc([N+](=O)[O-])c2)N1C(Cc1c[nH]c2ccccc12)C(=O)O (configuration not stated) .
### Response 90.9% (inactive)

### Prompt Supply growth measured with RXF 393 renal for `O=C1/C(=C/c2ccccc2Br)COc2ccc(O)c(O)c21` .
### Response 10.1% (inactive)

---

Catalogue of growth values
System: UACC-62 melanoma
Assay: NCI-60 one-dose screen, 48 h (100 = growth as untreated, 0 = no growth, -100 = all killed)
Conditions: 10 µM unless noted
Compounds without any hit were thinned out: in the full panel of roughly 83,000, 20% have a hit.
API: value field is a number in %; no unit string.

Answered cases to consult:
mol | growth [%]
N#Cc1cccc(-c2c(-c3ccc4ccccc4c3)oc3ccccc3c2=O)c1 | 33.9
COc1ccc(OC)c(-c2c(C#N)c(-c3cccs3)nc3c2c(-c2ccccc2)nn3-c2ccccc2)c1 | 90.2
CCOC(=O)C(=Cc1cccc(Cl)c1)C(=O)OCC | -9.18
O=C1NC(=O)c2c1c1c3ccccc3ccc1c1[nH]c3ccc(Br)cc3c21 | 29.9
C#CCOc1ccc2ncnc(Nc3cccc(NC(=O)C=C)c3)c2c1 | 64.1
CCCCCCCCCCCCCCCCCCOc1ccccc1CC(=O)NCC[N+]1(C)CCCC1 | 43.2
COc1ccc(-c2nc3c(c(-c4ccccc4)nn3-c3ccccc3)c(-c3ccc(N4CCN(C)CC4)cc3)c2C#N)cc1 | 100
CCOC(=O)c1cnc2ccccc2c1Cl | 95.2

### Prompt Answer with reported growth of `O=C1c2cccc3cccc(c23)C(=O)N1N1C(=O)c2cccc3c(N4CCOCC4)ccc(c23)C1=O`
### Response 90.5

### Prompt Read the entry `Cc1cccc2c1NC(=O)C2(c1ccc(O)cc1)c1ccc(O)cc1` and write its reported growth.
### Response 83.8
